# Tested on: UACC-62 melanoma
# ASSAY_PROTOCOL: NCI-60 one-dose screen, 48 h (100 = growth as untreated, 0 = no growth, -100 = all killed)
# CONDITION_SUMMARY: 10 µM unless noted
The panel holds about 83,000 compounds, 20% with a hit somewhere; the sample as a whole holds those more often. The source made the active and inactive calls. How the source made its calls: active means growth percent below 10; inactive means the rest.
In this section, each of the molecules is paired with its reported growth.

MOLECULE: C/C(=C\CCc1ccsc1)CC/C=C(\C)CCCN1CCSCC1
growth: 77% (inactive)
--
MOLECULE: O=C1NC(=S)S/C1=C\c1cc(Br)ccc1O
growth: 84.8% (inactive)
--
MOLECULE: COc1cccc(/C=C2\Cc3ccccc3C2=O)c1
growth: 98.9% (inactive)
--
MOLECULE: O=C1/C(=C\c2coc3ccccc3c2=O)c2ccccc2N1c1c(Cl)cccc1Cl
growth: 36.6% (inactive)
--
MOLECULE: CN(C)CCC(=O)Nc1ccc(-n2cc(-c3cccc(NC(=S)Nc4cccc(-c5cn(-c6ccc(NC(=O)CCN(C)C)cc6)nn5)c4)c3)nn2)cc1
growth: 114% (inactive)
--
MOLECULE: Cc1ccc(S(=O)(=O)NCCN2c3nc4ccccc4cc3Sc3cc4ccccc4nc32)cc1
growth: 66.9% (inactive)
--
MOLECULE: N#Cc1ccc(-c2csc(Nc3ccc4nc5n(c(=O)c4c3)CCC5)n2)cc1
growth: 100% (inactive)
--
MOLECULE: O=C(Nc1ccccc1S)c1ccccc1
growth: 86.6% (inactive)
--
MOLECULE: CN(C)CCCN=c1cc2c(=O)n(CCCN(C)C)c(=O)c3c(NCCCN(C)C)cc4c(O)n(CCCN(C)C)c(=O)c1c4c3-2
growth: -49.3% (active)
--
MOLECULE: Nc1ccc2c(c1Br)Cc1ccccc1-2
growth: 91% (inactive)
--
MOLECULE: O=C(Nc1ccccc1)P(=O)(O)c1ccccc1
growth: 94.1% (inactive)
--
MOLECULE: Cc1cc2c(cc1C)[n+](Cc1ccc3ccccc3c1)cn2Cc1ccc2ccccc2c1
growth: -80.5% (active)
--
MOLECULE: CCN(CC)CCNCC(=O)Oc1ccc(/C=C/C(=O)CC(=O)/C=C/c2ccc(OC(=O)CNCCN(CC)CC)c(OC)c2)cc1OC
growth: 15.4% (inactive)
--
MOLECULE: O=C(Nc1ccc(Cl)cc1)Nc1nc2ccc(OC(F)(F)F)cc2o1
growth: 82.9% (inactive)
--
MOLECULE: COc1ccc2nc(N/N=C(\C)c3ccccn3)cc(C)c2c1
growth: -44.2% (active)
--
MOLECULE: COc1ccc2c3c(ccc2c1)C(=O)/C(=C\O)CC3
growth: 107% (inactive)
--
MOLECULE: Cc1ccc(C(=O)Cc2ccccc2)c(O)c1
growth: 90.4% (inactive)
--
MOLECULE: O=C(CN1CCN(c2ccc(Cl)cc2)CC1)N1CCN(c2nnc(-c3ccc(Cl)cc3)c(-c3ccc(Cl)cc3)n2)CC1
growth: 69.9% (inactive)
--
MOLECULE: COc1cccc(-c2nc(-c3ccc(N)cc3)co2)c1
growth: 90.3% (inactive)
--
MOLECULE: CCOc1cc(/C=C/C(=O)C(C(=O)/C=C/c2ccc(OC(=O)CNc3nnc(C)s3)c(OCC)c2)C(=O)CNc2nnc(C)s2)ccc1OC(=O)CNc1nnc(C)s1
growth: -88.7% (active)
--
MOLECULE: Cc1cc(C)cc(S(=O)(=O)n2ccc(-c3ccc4c(c3)CCC(C)(C)O4)n2)c1
growth: 73.9% (inactive)
--
MOLECULE: CCn1cnc(C[C@H](NC(=O)[C@H](CCCCNC(=O)Nc2cc(C(F)(F)F)cc(C(F)(F)F)c2)NC(=O)Nc2cc(C(F)(F)F)cc(C(F)(F)F)c2)C(=O)OC)c1
growth: -88.3% [100 µM] (active)
--
MOLECULE: CCCCOP(=O)(OCCCC)C(C(=O)OCC)C(CC(=O)OCC)C(=O)OCC (stereo not drawn)
growth: 105% (inactive)
--
MOLECULE: CN(C)c1ccc(-c2nc3ncc(Br)cc3o2)cc1
growth: 87.3% (inactive)
--
MOLECULE: CN(C)c1ncnc2c1ncn2C1CCCCO1 (stereo not drawn)
growth: 84.5% (inactive)
--
MOLECULE: O=C(/C=C/c1ccc(C(F)(F)F)cc1)c1ccc(Nc2nc(NCCO)nc(NCCO)n2)cc1
growth: 79.1% (inactive)
--
MOLECULE: CSc1nc(Nc2ccc(S(=O)(=O)Nc3ccon3)cc2)c(C#N)c(-c2ccc(Cl)cc2)n1
growth: 107% (inactive)
--
MOLECULE: Nc1nc(Nc2ccccc2SSc2ccccc2Nc2nc(N)nc(C(Cl)(Cl)Cl)n2)nc(C(Cl)(Cl)Cl)n1
growth: 70% (inactive)

Reference for the values: PubChem BioAssay (NCI)
